Source: ChEMBL document CHEMBL2321751

Each record here notes measured pEC50.
# System: Trypanosoma brucei gambiense
# assay-explanation: Antitrypanosomal activity against Trypanosoma brucei gambiense DAL 898R after 70 hrs by Alamar Blue assay
# Assay type: functional, organism-based
Would you please state pEC50, meaning minus log10 of the concentration in mol/L, as a bare number?

Examples from the recorded data:
Case Nc1nc(N)nc(Nc2ccc([As]3SCC(CO)S3)cc2)n1 (configuration not stated) [MELARSOPROL] , Trypanosoma brucei gambiense, pEC50 recorded as 7.92

Case N=C(N)c1ccc(OCCCCCOc2ccc(C(=N)N)cc2)cc1 [PENTAMIDINE] , Trypanosoma brucei gambiense, pEC50 recorded as 9.05

Case O=C(Nc1cccc(-c2nc3ccccc3o2)c1)c1cc([N+](=O)[O-])ccc1Cl , Trypanosoma brucei gambiense, pEC50 recorded as 6.21

Case O=C(Nc1nc(-c2ccc(F)c(F)c2)cs1)c1cc([N+](=O)[O-])ccc1Cl , Trypanosoma brucei gambiense, pEC50 recorded as 5.80

Case O=C(Nc1ccc(Cl)c(C(F)(F)F)c1)c1cc([N+](=O)[O-])ccc1Cl , Trypanosoma brucei gambiense, pEC50 recorded as 5.80

Continuing:
Case O=C(Nc1ccc2oc(-c3ccc(F)cc3)nc2c1)c1cc([N+](=O)[O-])ccc1Cl , Trypanosoma brucei gambiense, pEC50 recorded as 5.36

Case O=C(Nc1cccc(-c2nc3ccccc3s2)c1)c1cc([N+](=O)[O-])ccc1Cl , Trypanosoma brucei gambiense, pEC50 recorded as 6.70

---

# assay-explanation: Kinetic solubility of the compound in PBS buffer at pH 7.4 after 18 hrs by UV spectrophotometric analysis
# Type: physicochemical
# experimental-parameters: PBS buffer, pH 7.4; read-out: Kinetic_solubility
Each record here notes measured solubility kinetic at 18 h.
// note: answer is a bare numeric in µM

// recorded solubility kinetic at 18 h for O=C(Nc1cccc(-c2nc3ccccc3s2)c1)c1cc([N+](=O)[O-])ccc1Cl : 0.58

// recorded solubility kinetic at 18 h for O=C(Nc1nc2c(Cl)cccc2s1)c1cc([N+](=O)[O-])ccc1Cl : 0.72

// recorded solubility kinetic at 18 h for O=C(Nc1cccc(-c2nc3ccccc3o2)c1)c1cc([N+](=O)[O-])ccc1Cl : 0.47

// recorded solubility kinetic at 18 h for O=C(Nc1ccc(Cl)c(-c2nc3ccccc3s2)c1)c1cc([N+](=O)[O-])ccc1Cl : 0.41

// recorded solubility kinetic at 18 h for O=C(Nc1ccc(Cl)c(C(F)(F)F)c1)c1cc([N+](=O)[O-])ccc1Cl : 0.58

---

Each record here notes measured half-life.
# assay-explanation: Half life in mouse liver microsomes
# Type: ADME, Microsome
// note: answer is a bare numeric in h

Examples from the recorded data:
// recorded half-life for CN1CCN(c2cc(Cl)c(C(=O)Nc3cccc(-c4nc5ccccc5s4)c3)cc2[N+](=O)[O-])CC1 : 0.81

// recorded half-life for O=C(Nc1cccc(-c2nc3ccccc3s2)c1)c1cc([N+](=O)[O-])ccc1Cl : 0.18

# input for lookup
// recorded half-life for Cc1ccc(-c2nc3ccccc3s2)cc1NC(=O)c1cc([N+](=O)[O-])c(N2CCN(C)CC2)cc1Cl : 1.3

---

Each record here notes measured Papp.
# assay-explanation: Permeability of the compound at pH 3.0 by PAMPA
# Assay type: ADME
# experimental-parameters: read-out: permeability
// note: answer is a bare numeric in ×10⁻⁶ cm/s

// recorded Papp for O=C(Nc1cccc(-c2nc3ccccc3s2)c1)c1cc([N+](=O)[O-])c(N2CCOCC2)cc1Cl : 106

// recorded Papp for Cc1ccc(-c2nc3ccccc3s2)cc1NC(=O)c1cc([N+](=O)[O-])c(N2CCN(C)CC2)cc1Cl : 60

Continuing:
// recorded Papp for O=C(Nc1cccc(-c2nc3ccccc3s2)c1)c1cc([N+](=O)[O-])ccc1Cl : 51

// recorded Papp for CN1CCN(c2cc(Cl)c(C(=O)Nc3cccc(-c4nc5ccccc5s4)c3)cc2[N+](=O)[O-])CC1 : 108

// recorded Papp for Cc1ccc(-c2nc3ccccc3s2)cc1NC(=O)c1cc([N+](=O)[O-])c(N2CCNCC2)cc1Cl : 0.6
